// each record: one item and its pKi for Carbonic anhydrase 9 (Homo sapiens, UniProt Q16790)
pKi: −log10 of the molar value.
PARAMETER: pKi

[[record]]
molecule = "COC(=O)c1c(O)cccc1O"
reported = 6.09

[[record]]
molecule = "CC(C)OC(=O)c1c(O)cccc1O"
reported = 6.10

[[record]]
molecule = "COC(=O)c1ccc(O)c(O)c1 [METHYL PROTOCATECHUATE]"
reported = 6.10

[[record]]
molecule = "CCOC(=O)c1ccc(O)cc1"
reported = 5.09

[[record]]
molecule = "COC(=O)/C=C/c1ccc(O)cc1 [METHYL P-HYDROXYCINNAMATE]"
reported = 6.07

[[record]]
molecule = "CC(C)OC(=O)c1ccc(O)cc1O"
reported = 6.51

[[record]]
molecule = "CCOC(=O)c1cc(O)cc(O)c1"
reported = 6.04

